Let's look at some compounds and their measured Cell viability.
- Tested on: A2780 ovarian cancer cells
- TEST_DETAILS: Cell viability on co-administration of Ru complexes (1/3 x IC50) with formate or acetate
- Type: cell-based, human
- ASSAY_CONDITIONS: A2780, complex 1/3 x IC50, 24 h, formate 2 mM
- Procedure: Cell viability assays were carried out with complexes 1–8 in A2780 ovarian cancer cells. […] The experiments included 48 h of pre-incubation and 72 h of drug recovery, both in drug-free medium at 310 K in a 5% CO2 humidified atmosphere. All the experiments were performed as duplicates of triplicates in independent experiments and the error bars were calculated as the standard deviation from the mean. […]
Give the quantity in %, number only.

Cc1ccc(S(=O)(=O)[N-]CCN)cc1.[Cl-].[Ru+2].c1ccc(-c2ccccc2-c2ccccc2)cc1 [Complex 6, [(o-terp)Ru(TsEn)Cl]]    22.2
Cc1ccc(C(C)C)cc1.NCC[N-]S(=O)(=O)c1ccc(C(F)(F)F)cc1.[Cl-].[Ru+2] [Complex 3, [(p-cym)Ru(TfEn)Cl]]    19
NCC[N-]S(=O)(=O)c1ccc(C(F)(F)F)cc1.[Cl-].[Ru+2].c1ccc(-c2ccccc2-c2ccccc2)cc1 [Complex 7, [(o-terp)Ru(TfEn)Cl]]    2.5

Now take the following compound into account.
(Q) Cell viability lookup needed for CS(=O)(=O)[N-]CCN.[Cl-].[Ru+2].c1ccc(-c2ccccc2-c2ccccc2)cc1 [Complex 5, [(o-terp)Ru(MsEn)Cl]] , thanks.
(A) 5.8

###

Let's look at some compounds and their measured Cell viability.
- Tested on: A2780 ovarian cancer cells
- TEST_DETAILS: Cell viability on co-administration of Ru complexes (1/3 x IC50) with formate or acetate
- Assay type: cell-based, human
- ASSAY_CONDITIONS: A2780, complex 1/3 x IC50, 24 h, formate 0 mM
Please answer using a numeric value trailed by its unit.

Would you please look over these solved cases?
NCC[N-]S(=O)(=O)c1ccc(C(F)(F)F)cc1.[Cl-].[Ru+2].c1ccc(-c2ccccc2-c2ccccc2)cc1 [Complex 7, [(o-terp)Ru(TfEn)Cl]]    40 ± 2%
Cc1ccc(S(=O)(=O)[N-]CCN)cc1.[Cl-].[Ru+2].c1ccc(-c2ccccc2-c2ccccc2)cc1 [Complex 6, [(o-terp)Ru(TsEn)Cl]]    72.8 ± 0.9%

(Q) Cell viability lookup needed for CS(=O)(=O)[N-]CCN.[Cl-].[Ru+2].c1ccc(-c2ccccc2-c2ccccc2)cc1 [Complex 5, [(o-terp)Ru(MsEn)Cl]] , thanks.
(A) 73.59 ± 0.04%

(Q) Cell viability lookup needed for Cc1ccc(C(C)C)cc1.NCC[N-]S(=O)(=O)c1ccc(C(F)(F)F)cc1.[Cl-].[Ru+2] [Complex 3, [(p-cym)Ru(TfEn)Cl]] , thanks.
(A) 71 ± 2%
